These entries and their values trace back to ChEMBL document CHEMBL4706495.

# Lookup of reported Activity keyed by entry
assay: Toxicity in C57Bl/6 mouse assessed as average body weight at 100 mg/kg, ip measured after 30 days (reference value: 27 +/ 3.2 g); format: organism-based; details: in vivo, 720 h, time 30 day
Express it in g; write the number only.

compound | unit-abbrev | Activity
COc1cc([N+](=O)[O-])ccc1OCC(O)CN1CCN(CCO)CC1 (stereo not given) | g | 28.5
COc1ccccc1OCC(O)CN1CCN(CCO)CC1 (stereo not given) | g | 28.5
C=CCc1ccc(OCC(O)CN2CCN(CCO)CC2)c(OC)c1 (stereo not given) | g | 27
Cc1ccccc1OCC(O)CN1CCN(CCO)CC1 (stereo not given) | g | 27.2

In the following, a different compound is considered.
Looking for the measured Activity of COc1cccc(OC)c1OCC(O)CN1CCN(CCO)CC1 (stereo not given) , can you help? 27.6
